# Read-out: Caspase-3 (Homo sapiens) (UniProt P42574)
# Sequence (P42574 whole entry, looked up): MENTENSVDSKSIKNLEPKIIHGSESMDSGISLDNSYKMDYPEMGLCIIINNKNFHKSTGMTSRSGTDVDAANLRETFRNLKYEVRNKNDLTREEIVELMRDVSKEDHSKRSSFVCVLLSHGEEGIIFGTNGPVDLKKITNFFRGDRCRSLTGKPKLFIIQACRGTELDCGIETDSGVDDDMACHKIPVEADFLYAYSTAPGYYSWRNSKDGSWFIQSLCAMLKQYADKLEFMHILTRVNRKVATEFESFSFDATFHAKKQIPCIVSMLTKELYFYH
# test-details: LTEA_HepaRG_CASP3: Life Technologies and Expression Analysis (LTEA) Assay for cysteine-aspartic acid protease (CASP3) using HepaRG (AID 2283477)
# experimental-conditions: mRNA level, 48 h; actives raise or lower the signal
Active and inactive are the calls of the source. The calls were made as follows: active = hit-call score of the fitted dose curve at least 0.9, where 1 is the maximum; inactive = score below 0.9.
Outcome codes: T = active, F = inactive

> print(dat)
                                    compound  discrete.label
 1                              CCCCCCC(=O)O               F
 2  Cc1oc(-c2ccccc2)nc1CCOc1ccc(C[C@H](Nc2ccccc2C(=O)c2ccccc2)C(=O)O)cc1               T
 3  CC#C[C@]1(O)CC[C@H]2[C@@H]3CCC4=CC(=O)CCC4=C3[C@@H](c3ccc(N(C)C)cc3)C[C@@]21C               T
 4   OC1CCC(C2CCCCC2)CC1 (centres undefined)               F
 5  Cc1cc(CCN2CCN(c3nsc4ccccc34)CC2)cc2c1NC(=O)CC2(C)C               F
 6                            CCCCCCCCC(=O)O               F
 7  O=C(O)Cc1cc(I)c(Oc2cc(I)c(O)c(I)c2)c(I)c1               F
 8  CCc1ccc(CCOc2ccc(CC3SC(=O)NC3=O)cc2)nc1 (centres undefined)               F
 9                      CN1CCC[C@H]1c1cccnc1               F
10         O=C(OCCOCCOC(=O)c1ccccc1)c1ccccc1               F
11                        COC(=O)CCCCC(=O)OC               F
12  CCC(C)(C)C1CCC(O)CC1 (centres undefined)               F
13                             CCCCCCCC(=O)O               T
14  C=C(C)C(=O)OCCC(F)(F)C(F)(F)C(F)(F)C(F)(F)C(F)(F)C(F)(F)F               F
15  CC(=O)NC1(c2cccc(F)c2)CCN(CC[C@@]2(c3ccc(Cl)c(Cl)c3)CN(c3ccccc3)C(=O)CO2)CC1               F
16                                  CCCCOCCO               F
17                     CCCCCCCCCCCCN1CCCC1=O               F
18      CCCCCCCCOC(=O)CCCCCCCCC(=O)OCCCCCCCC               F
19  C[C@@H]1C[C@H]2[C@@H]3CCC4=CC(=O)C=C[C@]4(C)[C@@]3(F)[C@@H](O)C[C@]2(C)[C@@]1(O)C(=O)COP(=O)(O)O               F
20   CC(C)(C)c1cc(C(C)(C)C)c(O)c(C(C)(C)C)c1               F
21   CC[C@H](C)[C@@H](C(=O)O)n1sc2ccccc2c1=O               F
22  CCCOc1sc(C(=O)N2CCC(c3cc(CN)ccc3F)CC2)c(C)c1Br               F
23  CCC(=C(c1ccc(O)cc1)c1ccc(OCCN(C)C)cc1)c1ccccc1               T
24                      CCCOC(=O)c1ccc(O)cc1               F

FYI, the data here is from PubChem BioAssay (EPA / NIEHS).
